- Test: Inhibition of recombinant delta49N CHKA2 (unknown origin) assessed as ADP formation using choline as substrate by enzyme coupled assay
- Parameters: species or system Homo sapiens
Quantity Name: IC50 (nM)

a = CN(C)c1cc[n+](CCCCCCCCCC[n+]2ccc(N(C)C)cc2)cc1
b = CN(C)c1cc[n+](CCCCCCCCCCC[n+]2ccc(N(C)C)cc2)cc1
c = CN(C)c1cc[n+](CCCCCCCCCCCCn2cnc3ccccc32)cc1
d = CN(C)c1cc[n+](CCCCCCCCC[n+]2ccc(N(C)C)cc2)cc1
e = CN(C)c1cc[n+](CCCCCCCCCCCCCC[n+]2ccc(N(C)C)cc2)cc1
Put the items in order so that reported IC50 rises from first to last. Dear reader, please state the labels in the requested order.
e, b, a, d, c
(e: 150 nM, b: 290 nM, a: 670 nM, d: 1300 nM, c: 5100 nM)
